Where do the numbers come from? From ChEMBL document CHEMBL4414598.

# Target of assay: Adenosine receptor A3 (Homo sapiens) (UniProt P0DMS8)
# Sequence (whole entry): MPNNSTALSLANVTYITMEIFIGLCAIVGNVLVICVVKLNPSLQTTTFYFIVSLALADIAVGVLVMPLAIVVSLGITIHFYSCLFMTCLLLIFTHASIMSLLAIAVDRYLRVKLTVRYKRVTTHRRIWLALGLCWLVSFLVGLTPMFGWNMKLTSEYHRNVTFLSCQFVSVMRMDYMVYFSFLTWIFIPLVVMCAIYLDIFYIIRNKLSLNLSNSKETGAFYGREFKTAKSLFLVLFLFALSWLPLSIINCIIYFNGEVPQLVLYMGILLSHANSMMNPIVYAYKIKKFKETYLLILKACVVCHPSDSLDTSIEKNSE
# Assay: Displacement of [3H]NECA from human A3 receptor expressed in human HeLa cell membranes at 1 uM incubated for 180 mins by radioligand binding competition assay relative to control
inhibition: recorded values
Express your answer in %, writing the number without its unit.

Recorded inhibition, per entry:
Molecule: CC1=C(C(=O)OC(C)C)C(c2cccs2)n2c(nc3ccccc32)N1 (stereo unspecified)
Target of assay: Adenosine receptor A3 (Homo sapiens) (UniProt P0DMS8)
Unit symbol: %
Reported: 3
--
Molecule: CC1=C(C(=O)OC(C)C(F)(F)F)C(c2ccoc2)NC(=O)N1 (stereo in doubt; 14j-D1)
Target of assay: Adenosine receptor A3 (Homo sapiens) (UniProt P0DMS8)
Unit symbol: %
Reported: 12
--
Molecule: CC1=C(C(=O)OC(C)C(F)(F)F)C(c2ccsc2)NC(=O)N1 (stereo in doubt; 14l-D2)
Target of assay: Adenosine receptor A3 (Homo sapiens) (UniProt P0DMS8)
Unit symbol: %
Reported: 1
--
Molecule: CCOC(=O)C1=C(C(F)(F)F)Nc2nc3ccccc3n2C1c1cccs1 (racemic)
Target of assay: Adenosine receptor A3 (Homo sapiens) (UniProt P0DMS8)
Unit symbol: %
Reported: 19
--
Molecule: CC1=C(C(=O)OCC(F)(F)F)C(c2ccoc2)n2c(nc3ccccc32)N1 (racemic)
Target of assay: Adenosine receptor A3 (Homo sapiens) (UniProt P0DMS8)
Unit symbol: %
Reported: 1

Q: Form field: reported inhibition of CC1=C(C(=O)OCC(F)(F)F)C(c2ccoc2)NC(=O)N1 (racemic)
Result: 1

* * *

# Target of assay: Adenosine receptor A2a (Homo sapiens, UniProt P29274)
# Sequence (P29274 whole entry): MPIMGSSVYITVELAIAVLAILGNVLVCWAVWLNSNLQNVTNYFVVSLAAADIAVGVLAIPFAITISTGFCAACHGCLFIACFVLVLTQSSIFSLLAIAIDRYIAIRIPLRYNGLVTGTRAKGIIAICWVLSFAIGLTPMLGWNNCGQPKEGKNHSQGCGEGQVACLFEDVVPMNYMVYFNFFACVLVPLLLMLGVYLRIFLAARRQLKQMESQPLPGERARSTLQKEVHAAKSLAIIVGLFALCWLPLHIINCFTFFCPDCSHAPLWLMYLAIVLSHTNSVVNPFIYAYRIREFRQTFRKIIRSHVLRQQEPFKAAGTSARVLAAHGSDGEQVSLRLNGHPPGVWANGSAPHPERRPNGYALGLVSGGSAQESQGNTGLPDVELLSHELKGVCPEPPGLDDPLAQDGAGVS
# Assay: Displacement of [3H]ZM241385 from human recombinant A2A receptor expressed in human HeLa cell membranes at 1 uM incubated for 30 mins by radioligand binding competition assay relative to control
Parameter inhibition: see the listing below.
Give the number; % is assumed, so skip it.

Examples from the recorded data:
Compound: CC1=C(C(=O)O[C@@H](C)C(F)(F)F)[C@@H](c2ccco2)n2c(nc3ccccc32)N1
inhibition [%]: 5
//
Compound: CC1=C(C(=O)OCC(F)(F)F)C(c2cccs2)n2c(nc3ccccc32)N1 (racemic)
inhibition [%]: 7
//
Compound: CCOC(=O)C1=C(C(F)(F)F)NC(=O)NC1c1ccsc1 (racemic)
inhibition [%]: 46
//
Compound: CC1=C(C(=O)OCC(F)(F)F)C(c2ccsc2)NC(=O)N1 (racemic)
inhibition [%]: 1
//
Compound: CC(C)OC(=O)C1=C(C(F)(F)F)Nc2nc3ccccc3n2C1c1ccsc1 (racemic)
inhibition [%]: 3
//
Compound: CC1=C(C(=O)O[C@H](C)C(F)(F)F)[C@@H](c2ccco2)n2c(nc3ccccc32)N1
inhibition [%]: 1
//
Compound: CC1=C(C(=O)O[C@@H](C)C(F)(F)F)C(c2ccco2)n2c(nc3ccccc32)N1 (mixture of isomers)
inhibition [%]: 1
//
Compound: CCOC(=O)C1=C(C(F)(F)F)NC(=O)NC1c1cccs1 (racemic)
inhibition [%]: 20

Let's switch to this compound now.
Q: Given the entry `CC1=C(C(=O)OCC(F)(F)F)[C@@H](c2ccco2)n2c(nc3ccccc32)N1` , report its measured inhibition.
Result: 1
